Experiment: qHTS drug screen for cell cycle checkpoint inhibitors in PARPi-resistant BRCA-mutant ovarian cancer cell lines. (AID 1963452)
Conditions: PEO1/OlaR viability, CellTiter-Glo luminescence, 96 h; measured here: PEO1 parental Z-AUC; stronger effect = lower value
quantity_name: Z-AUC
Please give only the number in your answer, with no unit.

Q: Fill blank: measured Z-AUC of the compound COc1cc(OCc2cccc(-c3ccccc3)c2C)cc(OC)c1CN1CCCC[C@H]1C(=O)O is ____.
Ans: -0.135

Q: Fill blank: measured Z-AUC of the compound Nc1cc(COc2c(Cl)cc(C[C@H](N)C(=O)O)cc2Cl)c2oc(-c3ccccc3)nc2c1 is ____.
Ans: -0.255

Q: Fill blank: measured Z-AUC of the compound Cc1ccc(NC(=O)NCc2ccc3c(c2)CN(C2CCC(=O)NC2=O)C3=O)cc1Cl (configuration not stated) is ____.
Ans: -3.53

====

Assay: Viability qHTS for inhibitors of the SERCaMP assay screened against the NCATS CANVASS Library (AID 1347400); further: nearly all actives have a fitted effect of over 70% in size
Conditions: SH-SY5Y SERCaMP cells viability, CellTiter-Glo, 48 h; series mostly up to 92.2 µM
Results filed as inconclusive are left out. Calls of active or inactive are those of the source. The call rests on the fitted dose curve; in most records, active means well fitted cell-killing curve with a large enough effect; inconclusive means small, poorly fitted or top-dose-only effect; inactive means flat fitted curve, though single readings scatter.
I would appreciate it if you answered using one of these outcomes: active, inactive

These recorded examples may help you get a feel for the data.
Q: Which outcome was assigned to Cc1cc(O)cc2c1C(=O)c1c(O)cc(O)cc1C2=O in this test?
Ans: inactive

Q: Which outcome was assigned to C[C@H](c1cnc(N)[nH]1)c1ccc(O)c2[nH]cc(-c3cnc(-c4c[nH]c5ccccc45)c(=O)[nH]3)c12 in this test?
Ans: inactive

Q: Which outcome was assigned to C/C=C1/CN2C3CC1C1C=CC(=O)N4c5ccccc5[C@@]3(C[C@@H]2C2=C[C@H]3C5CC6N(CC[C@@]67c6ccccc6N(C2=O)[C@@H]37)C/C5=C/C)[C@H]14 (some centres undefined) in this test?
Ans: active

Could you now consider this next compound?
Q: Which outcome was assigned to CO/C=C/C(=O)c1cc2cnc3c(N)cc(=NC(=O)C(C)C)c([nH]1)c23 in this test?
Ans: active

====

Test: UWB1.289 Cancer Cell Toxicity qHTS against the NCATS CANVASS Library (AID 1347347); further: nearly all actives have a fitted effect of over 60% in size
Settings: UWB1.289 viability, CellTiter-Glo luminescence, 72 h; series mostly up to 38.3 µM
Records with an inconclusive call do not appear. The source made the active and inactive calls. Calls follow the shape of the dose curve; as a rule, active = well fitted cell-killing curve with a large enough effect; inconclusive = small, poorly fitted or top-dose-only effect; inactive = flat fitted curve, though single readings scatter.
I would appreciate it if you answered using one of these outcomes: Y (active), N (inactive)

Q: Which outcome was assigned to COc1cc2ccc(=O)oc2c(O)c1O[C@@H]1O[C@H](CO)[C@@H](O)[C@H](O)[C@H]1O in this test?
Ans: N

Q: Which outcome was assigned to C[C@@]1(CCC(=O)Nc2c(O)ccc(C(=O)O)c2O)C(=O)C=C[C@]23C[C@H]4C[C@H](O[C@@]4(C)C2)C31 (stereo partly specified) in this test?
Ans: N

Q: Which outcome was assigned to CO[C@H]1[C@@H](OC(=O)/C(C)=C\[C@@H]2O[C@@H]2[C@H]2O[C@H]2C)[C@H](O)[C@H](OCC23C[C@@H]4[C@H](C)CC[C@H]4C4(C=O)CC2C=C(C(C)C)C34C(=O)O)O[C@@H]1C (stereo partly specified) in this test?
Ans: N

Q: Which outcome was assigned to COC12OC1(C13OC1(OC)C(=O)c1cc4cc(C)oc(=O)c4c(O)c1C3O)C(O)c1c(cc3cc(C)oc(=O)c3c1O)C2=O (stereo unspecified) in this test?
Ans: N

Q: Which outcome was assigned to C=CC(C)(C)C(=O)[C@@H](C)[C@@H]1CC[C@@](C)(C=C)O1 in this test?
Ans: N

Q: Which outcome was assigned to CC[C@H]1[C@@H](C)[C@@H](c2cc(OC)c(OC)cc2OC)[C@H](C)[C@@H](c2cc(OC)c(OC)cc2OC)[C@@]12C=C(OC)C(=O)C=C2OC in this test?
Ans: Y

Q: Which outcome was assigned to CC(CCC[C@]1(C)C(=O)C=C[C@@]23C[C@]4(C)O[C@@H](C[C@@H]4[C@H]2O)C31)C(=O)O (stereo partly specified) in this test?
Ans: N

Q: Which outcome was assigned to CCC(=O)CCCCC[C@@H]1NC(=O)[C@H]2CCCCN2C(=O)[C@H](C(C)C)NC(=O)[C@H](Cc2cn(OC)c3ccccc23)NC1=O in this test?
Ans: Y

Q: Which outcome was assigned to C[C@@]12CCC[C@@](C)(C(=O)O)[C@H]1C[C@@H](O)[C@@]13C[C@@H](CC[C@@H]21)[C@](C)(O)C3 in this test?
Ans: N

Q: Which outcome was assigned to C[C@@]12CCC[C@@](C)(C(=O)O)[C@H]1CC[C@@]13C[C@@H](CC[C@H]12)[C@](C)(O)C3 in this test?
Ans: N

Q: Which outcome was assigned to COc1ccc([C@@H]2c3cc4c(cc3C(=O)C(C)C2C)OCO4)cc1OC (stereo partly specified) in this test?
Ans: N

Q: Which outcome was assigned to C[C@]12CCC[C@](C)(C(=O)O)[C@@H]1CC[C@@]1(C)c3cocc3CC[C@H]21 in this test?
Ans: N

Q: Which outcome was assigned to CC(C)=CC[C@H]1C[C@@]2(CC=C(C)C)C(=O)[C@](CC=C(C)C)(C(=O)C(C(=O)c3ccccc3)=C2O)C1(C)C in this test?
Ans: Y

Q: Which outcome was assigned to CN1CC[C@]23c4ccccc4N[C@H]1[C@]21CCN(C)[C@H]3Nc2ccccc21 in this test?
Ans: N

Q: Which outcome was assigned to O=C1CC(c2ccc(O)cc2)Oc2cc(O)cc(O)c21 (stereo unspecified) in this test?
Ans: N

Q: Which outcome was assigned to C=C[C@@]1(C)CC[C@@H]([C@H](C)C(C)=O)O1 in this test?
Ans: N

====

Assay: KB-3-1 Cancer Cell Toxicity qHTS against the NCATS CANVASS Library (AID 1347366); further: nearly all actives have a fitted effect of over 75% in size
Settings: KB-3-1 viability, CellTiter-Glo luminescence, 72 h; series mostly up to 46.1 µM
Results filed as inconclusive are left out. Activity calls are given as the source filed them. Calls come from the whole dose curve; as a rule, active = well fitted cell-killing curve with a large enough effect; inconclusive = small, poorly fitted or top-dose-only effect; inactive = flat fitted curve, though single readings scatter.
I would appreciate it if you answered using one of these outcomes: active, inactive

Q: Which outcome was assigned to C[C@@H]1CC[C@]2(C(=O)O)CC[C@]3(C)C(=C2[C@H]1C)CC[C@@H]1[C@@]2(C)CC[C@H](O)C(C)(C)[C@@H]2CC[C@]13C in this test?
Ans: inactive

Further cases:
Q: Which outcome was assigned to C/C=C/[C@H]1[C@H]2C(=O)c3c(O)c(C)c(O)c(C)c3[C@]1(C(=O)O)C(=O)C=C2C in this test?
Ans: inactive

Q: Which outcome was assigned to C=C1C[C@]23C=CC(=O)[C@@](C)(CCCC(C)C(=O)N[C@@H](CO)C(=O)O)[C@@H]2C[C@@H]1CC3 (stereo not given in full) in this test?
Ans: inactive

Q: Which outcome was assigned to C[C@@]12CCC[C@@](C)(C(=O)O)[C@H]1CC[C@@]13C[C@@H](CC[C@H]12)[C@](C)(O)C3 in this test?
Ans: inactive

Q: Which outcome was assigned to O=Cc1ccc2n1C[C@]1(OC2)O[C@H](CO)[C@@H](O)[C@@H]1O in this test?
Ans: inactive

Q: Which outcome was assigned to COC(=O)[C@@]1(C)CCC[C@]2(C)c3cc(OC)ccc3CC[C@@H]12 in this test?
Ans: inactive

Q: Which outcome was assigned to C=C1[C@@]2(C)CC3C4(C)CCC(O)C(C)(C)C4CCC3(C)[C@]1(C(=O)OC)C(=O)C(C)(O)C2=O (stereo not given in full) in this test?
Ans: inactive

Q: Which outcome was assigned to C/C(=C\[C@H](C)C(=O)C[C@H](O)CC1CC(=O)NC(=O)C1)[C@@H]1OC(=O)CCCC/C=C/[C@@H](O)C[C@@H]1C in this test?
Ans: active

Q: Which outcome was assigned to C/C1=C/[C@@H](C)[C@H](O)[C@@H](O)/C=C/CC/C=C/C(=O)O[C@@H]1[C@H](C)C(=O)CCCC1CC(=O)NC(=O)C1 in this test?
Ans: inactive

Q: Which outcome was assigned to C/C=C1/CN2C3CC1C1C=CC(=O)N4c5ccccc5[C@@]3(C[C@@H]2C2=C[C@H]3C5CC6N(CC[C@@]67c6ccccc6N(C2=O)[C@@H]37)C/C5=C/C)[C@H]14 (stereo not given in full) in this test?
Ans: active

Q: Which outcome was assigned to CN1C(=O)C(=O)N2C(=C[C@]3(c4c[nH]c5ccccc45)c4ccccc4N[C@H]23)C1=O in this test?
Ans: inactive

Q: Which outcome was assigned to C[C@@]1(CCC(=O)Nc2c(O)ccc(C(=O)O)c2O)C(=O)C=C[C@]23C[C@H]4C[C@H](O[C@@]4(C)C2)C31 (stereo not given in full) in this test?
Ans: inactive

Q: Which outcome was assigned to C[C@]12CC[C@]3(C1)[C@H](CC2=O)C[C@@H](OC(=O)c1ccccc1)[C@H]1[C@](C)(C(=O)O)CCC[C@@]13C in this test?
Ans: active

Q: Which outcome was assigned to O[C@H]1C=C2[C@H]3CN(Cc4cc5c(cc43)OCO5)[C@H]2C[C@@H]1O in this test?
Ans: active

Q: Which outcome was assigned to C/C=C(/CO)C(=O)O[C@@H]1[C@H](O)[C@@H](C(=O)OC)O[C@@H]2C[C@H]3OC(n4cnc5c(N)ncnc54)[C@H](OC)[C@H]3O[C@@]12O (stereo not given in full) in this test?
Ans: inactive
